All values here come from paper PMC4414810.

molecular target: HalM2 (haloduracin lanthipeptide synthetase) (Bacillus halodurans C-125); assay: fluorescence polarisation
pKi: −log10 of the molar value.
REPORTED METRIC: pKi

> print(dat)
                                     binder  reported.metric  numeric.result
1  MTNLLKEWKMPLERTHNNSNPAGDIFQELEDQDILAGIEGR [HalA1 leader peptide]              pKi            5.39
